B1: library; numbered along this chain (parent)
chain: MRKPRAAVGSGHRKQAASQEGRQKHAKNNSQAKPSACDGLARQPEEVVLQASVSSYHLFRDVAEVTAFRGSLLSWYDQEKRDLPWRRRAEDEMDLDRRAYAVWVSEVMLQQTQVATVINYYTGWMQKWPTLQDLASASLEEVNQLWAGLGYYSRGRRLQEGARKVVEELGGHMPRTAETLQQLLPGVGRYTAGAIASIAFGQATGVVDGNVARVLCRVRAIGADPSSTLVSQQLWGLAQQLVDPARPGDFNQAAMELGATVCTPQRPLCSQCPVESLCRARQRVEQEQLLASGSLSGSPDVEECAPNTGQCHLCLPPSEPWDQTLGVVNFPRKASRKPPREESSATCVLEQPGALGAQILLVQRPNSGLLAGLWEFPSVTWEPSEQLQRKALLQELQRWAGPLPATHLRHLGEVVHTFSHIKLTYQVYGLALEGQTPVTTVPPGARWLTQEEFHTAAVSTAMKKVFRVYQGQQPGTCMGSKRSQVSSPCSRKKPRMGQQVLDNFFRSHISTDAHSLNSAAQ

- Variants of: B1
- procedure_summary: 8OG:A repair function score (normalized; synonymous = 0, nonsense = -1) (normalized log-likelihood score); higher = more repair activity (WT-like);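 also: cells sorted at 72 h after reporter transfection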
- setup_conditions: with 8OG:A DNA repair reporter (GFP) in HEK-293 MUTYH KO cells
Response field class: enum, chosen by comparing 8OG:A repair function score against group A = under -0.3, group B = from -0.3 up to -0.04, group C = -0.04 and over

Some entries whose results are on file:
mutation_string: Q111T
group_label: group A
//
mutation_string: P84C
group_label: group A
//
mutation_string: E168D
group_label: group B
//
mutation_string: L73V
group_label: group B
//
mutation_string: A457N
group_label: group A

[ask] Would you mind sorting N119R into the appropriate category?
[reply] group C

[ask] What do you have for S55Q ?
[reply] group C

[ask] What do you have for S378Y ?
[reply] group B

Reference source: the supplement of paper PMC11908140
